Target: G-protein coupled receptor 84 (Homo sapiens)
Sequence (Q9NQS5 whole entry): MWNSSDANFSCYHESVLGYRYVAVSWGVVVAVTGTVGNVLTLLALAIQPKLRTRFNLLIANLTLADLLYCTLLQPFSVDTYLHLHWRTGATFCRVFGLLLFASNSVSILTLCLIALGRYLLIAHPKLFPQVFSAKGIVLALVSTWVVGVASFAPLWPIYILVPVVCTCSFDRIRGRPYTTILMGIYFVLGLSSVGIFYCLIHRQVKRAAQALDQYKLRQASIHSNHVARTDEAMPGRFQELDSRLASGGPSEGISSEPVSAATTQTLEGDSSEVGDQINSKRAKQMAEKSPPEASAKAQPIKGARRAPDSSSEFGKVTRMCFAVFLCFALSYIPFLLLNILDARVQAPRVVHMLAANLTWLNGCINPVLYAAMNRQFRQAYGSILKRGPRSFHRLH
Assay: Agonist activity at GPR84 (unknown origin) expressed in HEK293T cells expressing beta-arrestin 2-nanoluciferase incubated for 5 mins by beta-arrestin recruitment based BRET assay
pEC50: −log10 of the molar value.

| smiles_data | target | pEC50 |
| --- | --- | --- |
| CCCCc1ccc(-c2cc(O)cc(O)n2)cc1 | G-protein coupled receptor 84 (Homo sapiens) | 5.79 |
| CCCCCc1ccc(-c2cc(O)cc(=O)[nH]2)cc1 | G-protein coupled receptor 84 (Homo sapiens) | 5.58 |
| O=c1cc(O)cc(-c2ccc(Oc3ccccc3)cc2)[nH]1 | G-protein coupled receptor 84 (Homo sapiens) | 6.68 |
| CC(C)Cc1ccc(CCc2cc(O)cc(=O)[nH]2)cc1 | G-protein coupled receptor 84 (Homo sapiens) | 6.04 |
| O=c1cc(O)cc(-c2ccc(Oc3ccccc3)nc2)[nH]1 | G-protein coupled receptor 84 (Homo sapiens) | 6.58 |
| CCCCCCCC#Cc1cc(O)cc(=O)[nH]1 | G-protein coupled receptor 84 (Homo sapiens) | 6.26 |
| CCCc1ccc(CCc2cc(O)cc(=O)[nH]2)cc1 | G-protein coupled receptor 84 (Homo sapiens) | 6.67 |
| CCOc1ccc(CCc2cc(O)cc(=O)[nH]2)cc1 | G-protein coupled receptor 84 (Homo sapiens) | 5.14 |
